Biological target: human CD33 P301A (human, UniProt P20138 18-364)
Sequence (P20138 18-364 P301A limits assumed): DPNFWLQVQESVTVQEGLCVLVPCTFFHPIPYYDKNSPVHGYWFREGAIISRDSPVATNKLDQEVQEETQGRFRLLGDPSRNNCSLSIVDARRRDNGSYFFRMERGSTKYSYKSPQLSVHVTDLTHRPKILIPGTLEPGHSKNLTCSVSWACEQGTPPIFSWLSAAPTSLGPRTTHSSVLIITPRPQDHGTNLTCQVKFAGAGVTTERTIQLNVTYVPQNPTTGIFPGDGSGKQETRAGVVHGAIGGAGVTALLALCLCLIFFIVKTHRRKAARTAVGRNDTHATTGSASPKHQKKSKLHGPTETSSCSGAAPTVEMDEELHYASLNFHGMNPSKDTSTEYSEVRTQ
Assay: alanine scan, flow cytometry, HEK293-T;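 further: antibody binding to each alanine-substituted CD33 mutant expressed transiently in HEK293-T, read as fluorescence minus background, mean of duplicates, relative to wild-type CD33 set as 100%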
experimental readout: Mean % WT Binding (% WT binding)

binder | experimental readout | number
Refmab #3 (antibody, V domains shown, The alanine scan used IgG or Fab) VH: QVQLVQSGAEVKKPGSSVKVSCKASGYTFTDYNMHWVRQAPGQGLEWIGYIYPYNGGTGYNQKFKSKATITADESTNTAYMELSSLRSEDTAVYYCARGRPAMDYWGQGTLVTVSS VL: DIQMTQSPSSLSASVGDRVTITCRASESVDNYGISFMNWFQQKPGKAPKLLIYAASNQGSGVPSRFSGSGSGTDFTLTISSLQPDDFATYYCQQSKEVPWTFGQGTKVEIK | Mean % WT Binding | 93.9
Refmab #4 (antibody, V domains shown, The alanine scan used IgG or Fab) VH: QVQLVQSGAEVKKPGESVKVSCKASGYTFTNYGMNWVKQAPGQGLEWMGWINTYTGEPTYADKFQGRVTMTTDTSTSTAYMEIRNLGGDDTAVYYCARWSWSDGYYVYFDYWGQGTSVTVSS VL: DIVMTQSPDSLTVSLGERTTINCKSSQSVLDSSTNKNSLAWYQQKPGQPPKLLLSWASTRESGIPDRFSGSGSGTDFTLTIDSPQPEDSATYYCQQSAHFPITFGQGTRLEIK | Mean % WT Binding | 97.9
Refmab #2 (antibody, V domains shown, The alanine scan used IgG or Fab) VH: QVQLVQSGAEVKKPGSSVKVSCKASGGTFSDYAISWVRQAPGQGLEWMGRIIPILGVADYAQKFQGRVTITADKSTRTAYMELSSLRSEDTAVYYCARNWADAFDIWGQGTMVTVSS VL: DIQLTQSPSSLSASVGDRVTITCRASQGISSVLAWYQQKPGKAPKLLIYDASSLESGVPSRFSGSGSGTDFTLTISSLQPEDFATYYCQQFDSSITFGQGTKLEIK | Mean % WT Binding | 91.8
Refmab #1 (antibody, V domains shown, The alanine scan used IgG or Fab; also called hP67.6) VH: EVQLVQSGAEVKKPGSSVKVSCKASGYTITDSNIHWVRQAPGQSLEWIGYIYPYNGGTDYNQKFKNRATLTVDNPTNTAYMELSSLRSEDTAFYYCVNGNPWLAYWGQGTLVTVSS VL: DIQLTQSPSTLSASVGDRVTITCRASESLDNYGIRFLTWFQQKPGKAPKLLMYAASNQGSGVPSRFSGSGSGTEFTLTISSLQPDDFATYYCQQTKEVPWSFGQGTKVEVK | Mean % WT Binding | 101

Where do these numbers come from? They come from patent US20260242735A1.
